System: Wnt reporter (TCF/LEF1 promoter)
Assay: HEK STF293 Wnt reporter (TOPFlash) luciferase assay, Steady Glo normalised to Cell Titer
Format: cell-based, human
Details: Homo sapiens, STF/293; Examples for Formulae (I), (II), and (III); HEK STF293 cells, Wnt3a-conditioned media; read-out: TOPFlash IC50 category
Description: All compounds were tested using the human cell line HEK STF293. This cell line carries a Wnt reporter (TCF/LEF1 promoter), which drives expression of the firefly luciferase protein. The level of Wnt activity is directly correlated with the level of luciferase activity (determined using a simple assay). […] Both Steady Glo and Cell Titer assays were read with a luminescence plate reader. […] Both Steady Glo and Cell Titer assays were read with a luminescence plate reader. […]
valueKind: IC50

Cc1nn(Cc2ccc(F)cc2)c(Cl)c1C(=O)Nc1nc(-c2ccccn2)cs1 [Example 9] : 0.5 to 1 µM
O=C(Nc1nc(-c2ccccn2)cs1)c1cn(-c2ccccc2)nc1-c1ccccc1 [Example 14] : < 0.2 µM
Cc1nn(Cc2ccc(Cl)cc2Cl)c(Cl)c1C(=O)Nc1nc(-c2ccccn2)cs1 [Example 13] : 0.5 to 1 µM
O=C(Nc1nc(-c2ccccn2)cs1)c1c(C(F)(F)F)nn(-c2ccccc2)c1C(F)(F)F [Example 17] : 1 to 10 µM
Cn1cc(C(=O)Nc2nc(-c3ccccn3)cs2)c(-c2ccccc2Cl)n1 [Example 2] : 1 to 10 µM

Let us move to another entry and its IC50.
// recorded IC50 for Cc1ccc(Cn2nc(C)c(C(=O)Nc3nc(-c4ccccn4)cs3)c2C)cc1 [Example 10] : 0.5 to 1 µM
